# target under test: c-Src SH2
# procedure details: SH2 binding enrichment of the phosphorylated peptide, bacterial display (enrichment ratio); higher = better substrate or ligand; peptides without Tyr show the background
measured property: SH2 binding enrichment

P = LTECGYSFTTT [ACTB_Y198_R196C]
Q = AAPAAHDAADT [GAMT_Y27_Y27H]
Param metric = SH2 binding enrichment; output whichever of P , Q has the minimum value. Record your answer as the label of the chosen record.
Q

###

# target under test: Jak2 (UniProt O60674)
# Sequence (O60674 whole entry, looked up): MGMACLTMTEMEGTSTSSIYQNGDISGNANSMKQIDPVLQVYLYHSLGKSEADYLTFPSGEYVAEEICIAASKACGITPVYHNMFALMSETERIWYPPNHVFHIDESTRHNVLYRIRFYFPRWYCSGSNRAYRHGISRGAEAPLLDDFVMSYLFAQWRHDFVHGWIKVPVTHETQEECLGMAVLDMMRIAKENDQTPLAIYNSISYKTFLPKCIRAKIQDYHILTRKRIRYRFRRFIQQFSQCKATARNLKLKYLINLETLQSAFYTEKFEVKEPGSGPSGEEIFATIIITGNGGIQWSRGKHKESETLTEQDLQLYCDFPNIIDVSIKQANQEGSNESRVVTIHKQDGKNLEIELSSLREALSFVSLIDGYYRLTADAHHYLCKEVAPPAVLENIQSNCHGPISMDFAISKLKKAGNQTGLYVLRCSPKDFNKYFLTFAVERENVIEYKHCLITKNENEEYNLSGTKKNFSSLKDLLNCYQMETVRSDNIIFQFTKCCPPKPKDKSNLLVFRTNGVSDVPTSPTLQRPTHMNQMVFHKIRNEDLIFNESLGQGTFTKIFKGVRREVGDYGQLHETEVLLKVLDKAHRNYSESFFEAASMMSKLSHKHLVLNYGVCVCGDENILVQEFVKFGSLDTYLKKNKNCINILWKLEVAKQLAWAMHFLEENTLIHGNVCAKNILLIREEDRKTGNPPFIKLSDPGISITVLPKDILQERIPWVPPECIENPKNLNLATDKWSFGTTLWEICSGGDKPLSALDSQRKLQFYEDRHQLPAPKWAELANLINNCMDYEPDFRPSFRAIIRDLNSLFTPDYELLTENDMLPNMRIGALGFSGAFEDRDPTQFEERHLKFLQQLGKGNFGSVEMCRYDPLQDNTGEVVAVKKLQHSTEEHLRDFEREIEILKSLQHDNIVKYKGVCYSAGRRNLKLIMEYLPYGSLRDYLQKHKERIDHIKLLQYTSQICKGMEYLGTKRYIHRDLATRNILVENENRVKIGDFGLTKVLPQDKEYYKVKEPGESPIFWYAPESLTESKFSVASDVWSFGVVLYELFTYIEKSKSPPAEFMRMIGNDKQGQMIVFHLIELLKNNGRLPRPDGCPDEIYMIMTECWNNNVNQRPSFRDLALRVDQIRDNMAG
# procedure details: phosphorylation enrichment, bacterial display (enrichment ratio); higher = better substrate or ligand; peptides without Tyr show the background
measured property: phosphorylation enrichment
Please give only the number in your answer, with no unit.

For orientation, consider the following solved cases.
- sequence text: "TESNNYIYTTL [FAM83B_Y637_K640T]"
  measured property: "phosphorylation enrichment"
  value: 0.774
- sequence text: "LKEIRYPPYTD [ALDH3B2_Y362_H361R]"
  measured property: "phosphorylation enrichment"
  value: 0.827
- sequence text: "LEAFQYIGESQ [MSH2_Y856_E853A]"
  measured property: "phosphorylation enrichment"
  value: 1.46
- sequence text: "EPVSDYINASI [PTPN11_Y304_N308S]"
  measured property: "phosphorylation enrichment"
  value: 0.953
- sequence text: "EALSLYTKLMN [STAM_Y371]"
  measured property: "phosphorylation enrichment"
  value: 1.49
- sequence text: "SDGHEYIFVDR [PDGFRB_Y579_P584R_YF]"
  measured property: "phosphorylation enrichment"
  value: 0.71
- sequence text: "AGIENYTSRFG [NKD2_Y256]"
  measured property: "phosphorylation enrichment"
  value: 0.465
- sequence text: "DPLLTYLFPPK [LMNA_Y481_R482L]"
  measured property: "phosphorylation enrichment"
  value: 2.79
- sequence text: "ERWLKYFPNEQ [HS3ST5_Y244_I247N]"
  measured property: "phosphorylation enrichment"
  value: 0.927
- sequence text: "LLDGEYFTLQI [TP53_Y327_P322L]"
  measured property: "phosphorylation enrichment"
  value: 8.38

So the reported phosphorylation enrichment for LLVVLYKYRCF [PSEN1_Y154_Y159F] , on Jak2 (UniProt O60674), turned out to be 2.16

So the reported phosphorylation enrichment for SKKSTYRALLD [GANC_Y43_Q44R] , on Jak2 (UniProt O60674), turned out to be 0.533

So the reported phosphorylation enrichment for GRKTLYSFFSP [UNG_Y8_Q4R] , on Jak2 (UniProt O60674), turned out to be 0.91

So the reported phosphorylation enrichment for ERSMSYCDESR [SMG1_Y143_S144C] , on Jak2 (UniProt O60674), turned out to be 0.728

So the reported phosphorylation enrichment for IMITDYLPLFR [INSR_Y87_L89P] , on Jak2 (UniProt O60674), turned out to be 2.85

So the reported phosphorylation enrichment for LTECGYSFTTT [ACTB_Y198_R196C] , on Jak2 (UniProt O60674), turned out to be 0.889

So the reported phosphorylation enrichment for RPFVFYFSFLL [PTEN_Y177_R173P_YF] , on Jak2 (UniProt O60674), turned out to be 1.55

So the reported phosphorylation enrichment for KMGNIYRTEFG [MRPL3_Y265_YF] , on Jak2 (UniProt O60674), turned out to be 0.448

So the reported phosphorylation enrichment for TVMGLYQKSSL [MYH7_Y609_V606M] , on Jak2 (UniProt O60674), turned out to be 0.707

So the reported phosphorylation enrichment for TPTYPYLLPKS [PLD2_Y580] , on Jak2 (UniProt O60674), turned out to be 0.639

So the reported phosphorylation enrichment for KIKGWYEKCEP [KRT26_Y119] , on Jak2 (UniProt O60674), turned out to be 1.07

###

# target under test: SHP2-C SH2
# procedure details: SH2 binding enrichment of the phosphorylated peptide, bacterial display (enrichment ratio); higher = better substrate or ligand; peptides without Tyr show the background
measured property: SH2 binding enrichment

For orientation, consider the following solved cases.
- sequence text: "DAICFYRMENA [NPHS2_Y195_YF]"
  SH2 binding enrichment: 0.805
- sequence text: "CFTRQYTLPPG [HSPB1_Y142_K141Q]"
  SH2 binding enrichment: 0.794
- sequence text: "LTECGYSFTTT [ACTB_Y198_R196C]"
  SH2 binding enrichment: 0.602
- sequence text: "AESPEYVHMFT [FAM111A_Y511_YF]"
  SH2 binding enrichment: 0.564
- sequence text: "AFAEVYEGQVS [ALK_Y1131_G1128A]"
  SH2 binding enrichment: 0.769

A = RSHLSYDVTPE [IQGAP3_Y1098_P1097S]
B = RRGMPYGGLGD [TGM1_Y312_R315L]
Param metric = SH2 binding enrichment; output whichever of A , B has the minimum value. Record your answer as the label of the chosen record.
B

###

# target under test: SHP2-C SH2
# procedure details: SH2 binding enrichment of the phosphorylated peptide, bacterial display (enrichment ratio); higher = better substrate or ligand; peptides without Tyr show the background
measured property: SH2 binding enrichment

For orientation, consider the following solved cases.
- sequence text: "RLNAIYQNNLT [GSR_Y158]"
  target under test: "SHP2-C SH2"
  SH2 binding enrichment: 0.986
- sequence text: "RYLTRYIYNRE [HLA-DQB1_Y62_V59L]"
  target under test: "SHP2-C SH2"
  SH2 binding enrichment: 0.763
- sequence text: "PFFTSYPPSPD [GDAP2_Y491_YF]"
  target under test: "SHP2-C SH2"
  SH2 binding enrichment: 0.568
- sequence text: "WDLPEYSYKDP [ITGA3_Y237_S235P]"
  target under test: "SHP2-C SH2"
  SH2 binding enrichment: 0.77
- sequence text: "WNDPDYMDSRR [GAA_Y407_L405P]"
  target under test: "SHP2-C SH2"
  SH2 binding enrichment: 0.581
- sequence text: "VRFMEYETQVK [TARDBP_Y155_T153M]"
  target under test: "SHP2-C SH2"
  SH2 binding enrichment: 0.958

a = KAESWYQTKYE [KRT75_Y342_E337K]
b = SHKELYKWFTS [DYNC1H1_Y3051_E3048K]
c = AERKLYRNVML [ZNF569_Y33_Q29E]
List by increasing SH2 binding enrichment. Please, when replying, give the labels in the order that was requested.
a, b, c
(a: 0.648, b: 1.05, c: 1.65)

A = WQQQSYLGSGI [CTNNB1_Y30_D32G]
B = KGLMPYGQPRP [SRRT_Y798_Q793K]
Exercise: compare A and B ; which one has the greater SH2 binding enrichment? Record your answer as the label of the chosen record.
B

a = FKDYFYCWNTS [AICDA_Y146_F151S]
b = SKEPFYVHCIK [MYO1D_Y586_R588H_YF]
Exercise: compare a and b ; which one has the greater SH2 binding enrichment? Record your answer as the label of the chosen record.
b
(b: 0.898, a: 0.542)

A = MKGDFYRSLAE [YWHAG_Y131_Y133S_YF]
B = CTTIHCNFMCN [TP53_Y234_Y234C_YF]
C = RSPLRYISILT [OR51B6_Y130_T131I]
List by increasing SH2 binding enrichment. Please, when replying, give the labels in the order that was requested.
A, B, C

###

# target under test: EPHB1 (UniProt P54762)
# Sequence (P54762 whole entry, looked up): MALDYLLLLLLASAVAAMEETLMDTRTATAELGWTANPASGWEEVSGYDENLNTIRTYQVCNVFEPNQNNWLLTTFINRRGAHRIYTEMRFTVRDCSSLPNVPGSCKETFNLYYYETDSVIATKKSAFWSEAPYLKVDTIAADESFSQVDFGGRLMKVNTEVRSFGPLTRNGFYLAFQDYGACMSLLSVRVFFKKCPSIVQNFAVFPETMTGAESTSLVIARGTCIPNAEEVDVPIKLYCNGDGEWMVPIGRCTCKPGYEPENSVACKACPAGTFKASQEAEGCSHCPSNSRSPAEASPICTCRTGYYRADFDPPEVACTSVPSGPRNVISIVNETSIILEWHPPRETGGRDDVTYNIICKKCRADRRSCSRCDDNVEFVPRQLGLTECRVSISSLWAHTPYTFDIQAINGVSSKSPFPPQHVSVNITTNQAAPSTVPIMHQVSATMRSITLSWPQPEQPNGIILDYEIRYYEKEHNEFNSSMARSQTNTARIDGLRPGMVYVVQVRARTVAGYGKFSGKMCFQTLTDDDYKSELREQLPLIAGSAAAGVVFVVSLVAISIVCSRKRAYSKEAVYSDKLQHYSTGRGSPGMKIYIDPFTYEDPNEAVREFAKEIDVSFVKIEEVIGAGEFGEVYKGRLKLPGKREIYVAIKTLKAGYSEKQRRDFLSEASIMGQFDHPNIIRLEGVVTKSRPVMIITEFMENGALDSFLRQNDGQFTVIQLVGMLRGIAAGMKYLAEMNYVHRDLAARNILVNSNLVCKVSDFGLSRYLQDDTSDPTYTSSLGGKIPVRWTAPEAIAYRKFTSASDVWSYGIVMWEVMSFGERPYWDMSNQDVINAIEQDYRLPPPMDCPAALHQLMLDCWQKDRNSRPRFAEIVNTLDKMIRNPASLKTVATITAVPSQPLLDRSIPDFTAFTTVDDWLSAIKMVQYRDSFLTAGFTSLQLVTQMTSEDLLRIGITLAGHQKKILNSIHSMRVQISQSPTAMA
# procedure details: phosphorylation enrichment, bacterial display (enrichment ratio); higher = better substrate or ligand; peptides without Tyr show the background
phosphorylation enrichment listing for selected sequences.
Please give only the number in your answer, with no unit.

- sequence text: "TRSFKCLLLSM [NF1_Y491_Y491C_YF]"
  value: 0.551
- sequence text: "FLEKFYKFGSR [NNMT_Y25_YF]"
  value: 0.592
- sequence text: "CKLCQYYLDHL [ATRX_Y1849_Y1847C]"
  value: 0.673
- sequence text: "KRISCYEASFQ [PFKFB3_Y194_YF]"
  value: 0.58
- sequence text: "SKKSTYRALLD [GANC_Y43_Q44R]"
  value: 0.368

The reported phosphorylation enrichment of the sequence IDFARYWHGDD [MMP11_Y162] was 0.676

The reported phosphorylation enrichment of the sequence FGGLRCGFGVL [KRTAP20-2_Y13_Y13C_YF] was 0.49

The reported phosphorylation enrichment of the sequence WAFNLYDINKY [KCNIP3_Y174_D179Y] was 2.29

The reported phosphorylation enrichment of the sequence RSRSPYSPVFR [CDK13_Y399_L403F] was 0.546

The reported phosphorylation enrichment of the sequence ATPSRYMTFLH [DYNC2H1_Y2872] was 0.505

The reported phosphorylation enrichment of the sequence LLSVAYQNVVG [YWHAG_Y49_K50Q] was 1.19

The reported phosphorylation enrichment of the sequence WNDLDYVDSRR [GAA_Y407_M408V] was 0.515
